Value source: ChEMBL document CHEMBL1132940

Biological target: GABA-A receptor; alpha-3/beta-3/gamma-2 (Homo sapiens, UniProt P18507+P28472+P34903)
Sequence (P18507 whole entry): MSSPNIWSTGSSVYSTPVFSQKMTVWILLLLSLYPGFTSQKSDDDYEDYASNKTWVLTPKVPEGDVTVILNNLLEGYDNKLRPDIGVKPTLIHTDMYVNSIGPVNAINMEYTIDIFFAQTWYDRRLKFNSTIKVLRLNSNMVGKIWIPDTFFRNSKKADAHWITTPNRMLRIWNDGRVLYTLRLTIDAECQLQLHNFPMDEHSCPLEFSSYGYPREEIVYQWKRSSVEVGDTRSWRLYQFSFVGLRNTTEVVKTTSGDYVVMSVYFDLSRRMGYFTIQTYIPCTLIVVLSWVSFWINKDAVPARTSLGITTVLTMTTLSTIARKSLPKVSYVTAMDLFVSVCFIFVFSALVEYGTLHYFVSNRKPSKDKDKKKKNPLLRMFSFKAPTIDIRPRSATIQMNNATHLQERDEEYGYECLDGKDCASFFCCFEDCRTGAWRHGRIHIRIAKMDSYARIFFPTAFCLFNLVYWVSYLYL
Sequence (P28472 whole entry): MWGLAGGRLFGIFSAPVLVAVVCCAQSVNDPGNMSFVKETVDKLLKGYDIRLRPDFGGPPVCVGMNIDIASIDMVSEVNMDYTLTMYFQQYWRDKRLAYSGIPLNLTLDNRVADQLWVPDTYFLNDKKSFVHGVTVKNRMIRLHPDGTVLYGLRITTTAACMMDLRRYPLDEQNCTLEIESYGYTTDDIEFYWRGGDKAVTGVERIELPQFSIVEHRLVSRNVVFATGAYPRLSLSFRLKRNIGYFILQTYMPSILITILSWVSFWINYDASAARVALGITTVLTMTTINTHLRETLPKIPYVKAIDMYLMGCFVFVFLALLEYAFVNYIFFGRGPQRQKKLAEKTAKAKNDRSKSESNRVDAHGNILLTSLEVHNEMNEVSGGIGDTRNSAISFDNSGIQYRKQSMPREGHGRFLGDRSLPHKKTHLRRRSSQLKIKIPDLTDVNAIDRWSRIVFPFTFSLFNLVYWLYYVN
Sequence (P34903 whole entry): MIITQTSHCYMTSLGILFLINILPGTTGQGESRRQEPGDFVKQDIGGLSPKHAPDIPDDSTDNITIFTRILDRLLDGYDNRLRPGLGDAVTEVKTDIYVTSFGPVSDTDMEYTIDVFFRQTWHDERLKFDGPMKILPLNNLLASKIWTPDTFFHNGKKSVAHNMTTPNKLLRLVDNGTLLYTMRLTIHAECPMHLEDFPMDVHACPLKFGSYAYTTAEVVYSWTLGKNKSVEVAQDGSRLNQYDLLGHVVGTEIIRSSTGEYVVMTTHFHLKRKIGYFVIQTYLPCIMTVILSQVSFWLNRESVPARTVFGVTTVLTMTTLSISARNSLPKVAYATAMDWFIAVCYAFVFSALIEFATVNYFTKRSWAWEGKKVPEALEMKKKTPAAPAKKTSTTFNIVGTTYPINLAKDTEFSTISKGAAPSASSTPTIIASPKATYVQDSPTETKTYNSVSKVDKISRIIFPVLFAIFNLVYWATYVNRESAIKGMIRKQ
Experiment: Binding affinity for human recombinant gamma-aminobutyric-acid (GABA) A receptor alpha-3-beta-3-gamma-2
Experimental Endpoint: Ki (nM)
Please reply with the bare figure in nM and do not write the unit itself.

Use the examples below as a reference point.
Compound: c1ccc2c(c1)[nH]c1cnc3c4cccnc4[nH]c3c12
Assay Target: GABA-A receptor; alpha-3/beta-3/gamma-2 (Homo sapiens, UniProt P18507+P28472+P34903)
Experimental Endpoint: Ki
Observed Value: 16.3
//
Compound: O=C1C2C=Nc3ccccc3C2=NN1c1ccccc1 (centres undefined)
Assay Target: GABA-A receptor; alpha-3/beta-3/gamma-2 (Homo sapiens, UniProt P18507+P28472+P34903)
Experimental Endpoint: Ki
Observed Value: 0.12

Next item in the queue.
Find the recorded Ki belonging to "CCOC(=O)c1ncn2c1[C@@H]1CCCN1C(=O)c1cc(OC)ccc1-2" and report it.
24.5
